Values compiled from PubChem BioAssay AID1347084.

Experiment: qHTS for Inhibitors of the Functional Ribonucleoprotein Complex (vRNP) of Lymphocytic Choriomeningitis Arenaviruses (LCMV): LCMV Confirmatory Screen - GLuc reporter signal
Conditions: LCMV minigenome vRNP, Gaussia luciferase reporter; series mostly up to 53.9 µM
Inconclusive results are not listed. Calls of active or inactive are those of the source. The call rests on the fitted dose curve.
Possible outcomes: 1 (yes) (active), 0 (no) (inactive)

- molecule: "Oc1cc(Cl)ccc1Oc1ccc(Cl)cc1Cl"
  group.label: "1 (yes)"
- molecule: "CC1=C(C)C(=O)C(CCCCC#CCCCC#CCO)=C(C)C1=O"
  group.label: "1 (yes)"
- molecule: "Cc1ccc2c(c1)C1CN(C)CCC1N2 (stereo not given)"
  group.label: "0 (no)"
- molecule: "COC(=O)c1nc(Cl)c(Cl)nc1N"
  group.label: "1 (yes)"
- molecule: "COc1ccc2c(c1OC)CN1CCc3cc4c(cc3C1C2)OCO4 (stereo not given)"
  group.label: "1 (yes)"
- molecule: "CCC1OC2(C)C(O)C(/C=C/C=C/C=C/c3oc(=O)cc(OC)c3C)OC1(C)C2OC(C)=O (stereo not given)"
  group.label: "1 (yes)"
- molecule: "Clc1nccc2c1ccc1ccccc12"
  group.label: "0 (no)"
- molecule: "S=C(NCc1ccc2c(c1)OCO2)N1CCN(c2ncnc3c2oc2ccccc23)CC1"
  group.label: "1 (yes)"
- molecule: "Nc1ccc([N+](=O)[O-])cc1O"
  group.label: "1 (yes)"
- molecule: "CC[C@@H](C(=O)O)[C@@H]1O[C@@H]([C@@H](C)[C@H](O)[C@H](C)C(=O)[C@H](CC)[C@H]2O[C@]3(C=C[C@@H](O)[C@]4(CC[C@@](C)([C@H]5CC[C@](O)(CC)[C@H](C)O5)O4)O3)[C@H](C)C[C@@H]2C)[C@@H](C)C[C@@H]1C"
  group.label: "1 (yes)"
